Target: Indoleamine 2,3-dioxygenase 1 (Homo sapiens)
Sequence (P14902 whole entry): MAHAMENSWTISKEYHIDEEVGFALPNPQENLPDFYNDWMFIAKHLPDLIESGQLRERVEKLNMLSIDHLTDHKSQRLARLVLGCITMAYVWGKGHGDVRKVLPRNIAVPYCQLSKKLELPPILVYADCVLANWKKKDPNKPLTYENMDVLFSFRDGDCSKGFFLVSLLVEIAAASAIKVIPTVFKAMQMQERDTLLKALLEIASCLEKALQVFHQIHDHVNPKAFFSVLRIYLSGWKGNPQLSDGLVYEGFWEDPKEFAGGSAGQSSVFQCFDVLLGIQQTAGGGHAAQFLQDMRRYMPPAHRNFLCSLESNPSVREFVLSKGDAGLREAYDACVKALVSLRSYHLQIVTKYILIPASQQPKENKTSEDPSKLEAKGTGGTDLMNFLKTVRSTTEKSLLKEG
Assay: Inhibition of IDO1 in IFN-gamma stimulated human HeLa cells assessed as reduction in kynurenine production incubated for 18 hrs
Assay type: cell-based
Conditions: read-out: IC50
Readout Name: IC50 (nM)

smiles_structure=O=C1c2cc(F)ccc2-n2c1nc1ccc(N3CCCCC3)cc1c2=O readout_name=IC50 quantity_unit=nM readout_value=2240
smiles_structure=CN1CCN(Cc2ccc3nc4n(c(=O)c3c2)-c2ccccc2C4=O)CC1 readout_name=IC50 quantity_unit=nM readout_value=180
smiles_structure=O=C1c2cc(F)ccc2-n2c1nc1ccc(N3CCNCC3)cc1c2=O readout_name=IC50 quantity_unit=nM readout_value=760

P = CN1CCN(c2ccc3nc4n(c(=O)c3c2)-c2ccc(F)cc2C4=O)CC1
Q = CN(C)c1ccc2nc3n(c(=O)c2c1)-c1ccc(F)cc1C3=O
R = CN1CCN(c2ccc3nc4n(c(=O)c3c2)-c2ccccc2C4=O)CC1
Request: Form: Sort by [IC50] Order [ ascending ] List the labels according to the requested ordering.
Response: Q, P, R
